Molecular target: Neuronal acetylcholine receptor subunit alpha-7 (Homo sapiens)
Sequence (P36544 whole entry): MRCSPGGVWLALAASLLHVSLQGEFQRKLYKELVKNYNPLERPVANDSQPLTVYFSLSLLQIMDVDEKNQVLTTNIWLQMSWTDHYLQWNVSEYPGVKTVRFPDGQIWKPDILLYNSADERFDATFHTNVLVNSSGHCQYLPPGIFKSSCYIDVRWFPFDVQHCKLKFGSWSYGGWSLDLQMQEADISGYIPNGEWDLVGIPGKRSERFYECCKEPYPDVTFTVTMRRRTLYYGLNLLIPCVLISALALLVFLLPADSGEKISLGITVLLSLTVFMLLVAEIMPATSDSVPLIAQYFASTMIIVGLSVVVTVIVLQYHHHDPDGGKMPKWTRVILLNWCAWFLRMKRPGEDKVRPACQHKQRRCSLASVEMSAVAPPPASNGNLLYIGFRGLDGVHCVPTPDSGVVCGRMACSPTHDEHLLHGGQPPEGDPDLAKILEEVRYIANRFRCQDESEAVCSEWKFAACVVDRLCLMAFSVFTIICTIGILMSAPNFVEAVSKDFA
Assay: Positive allosteric modulator activity at human alpha7 nAChR expressed in rat GH4C1 cells assessed as potentiation of acetylcholine-induced response by FDSS Ca2+ assay
measured-attribute: pEC50
Friendly reminder that pEC50 comes from taking -log10 of the concentration in mol/L.

QUERY: Any idea what pEC50 was measured for C[C@H](NC(=O)[C@H]1C[C@@H]1c1ccccc1)c1ccc(S(C)(=O)=O)nc1 ?
RESULT: 5.70
